- System: Ceriodaphnia dubia
- CONDITION_CONTEXT: in vivo
EXPERIMENTAL_ENDPOINT: Survival rate of Daphnia

IN: Name the recorded Survival rate of Daphnia for CCCCOP(=O)([O-])OCCCC.CCCC[N+](C)(CCCC)CCCC [[N4441] [DBP]] .
OUT: > 70%

IN: Follow-up item: CCCCOP(=O)(O)OCCCC.CN1CCCCC1 [[NMPPR] [DBP]]
OUT: 70-90%

IN: And then CCCCOP(=O)(O)OCCCC.CN1CCOCC1 [[NMM][DBP]] , what is it?
OUT: > 70%

IN: Same question, CCCCOP(=O)(O)OCCCC.CN1CCCCC1 [[NMPPR][DBP]] this time
OUT: > 70%

IN: Try this molecule next: CCCCCCCCN(CCCCCCCC)CCCCCCCC.CCCCOP(=O)(O)OCCCC [[N888H][DBP]]
OUT: 0%

IN: Moving on to the next molecule: CCCCCCN(CCCCCC)CCCCCC.CCCCOP(=O)(O)OCCCC [[N666H][DBP]]
OUT: 10%

IN: How about this molecule: CCCCOP(=O)(O)OCCCC.CN1CCOCC1 [[NMM] [DBP]]
OUT: 70-90%
